# credit: the RNAGym collection of RNA variant scans (doi:10.7554/elife.80360)

B1: HDV Ribozyme (parent)
chain: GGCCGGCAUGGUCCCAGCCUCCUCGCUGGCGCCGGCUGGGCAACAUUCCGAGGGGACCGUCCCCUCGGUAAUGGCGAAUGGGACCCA

Variants of: B1
Assay: self-cleavage, relative activity (ratio to wild type); higher = more cleavage; co-transcriptional
self-cleavage values for the variants below.
Measured parameter: self-cleavage

>>> df
    sequence_change  measured_parameter  endpoint_value
 0        A42U A70G       self-cleavage           0.571
 1        G10A G17U       self-cleavage           0.525
 2        U20G G39C       self-cleavage           0.175
 3         C7G A83G       self-cleavage            0.17
 4        C24G A78C       self-cleavage          0.0241
 5        C14G C84U       self-cleavage           0.415
 6        G55U A78U       self-cleavage           0.224
 7        C36A G52U       self-cleavage            0.14
 8        U69A U72A       self-cleavage           0.609
 9        U60A U72G       self-cleavage           0.467
10        C15U A71C       self-cleavage           0.467
